- testDescription: Drug level in BALB/c mouse at 240 mg/kg, po after 3 hrs
- Type: ADME, organism-based
- Parameters: dose 240 mg/kg, route oral
- testParameters: in vivo, read-out: Drug uptake
parameterMeasured: concentration at 3 h (µM)

>>> df
                                  smilesstr     parametermeasured  unitstext  number
0  Fc1cccc(Cn2ncc3cc(Nc4ncnn5ccc(COC[C@@H]6CNCCO6)c45)ccc32)c1  concentration at 3 h         µM     5.8

---

- measurementTarget: Epidermal growth factor receptor (Homo sapiens)
Reported IC50 values for a set of molecules
parameterMeasured: IC50 (nM)

                                  smilesstr                         measurementtarget  unitstext  resultcomparator  number
0  NC1CCN(Cc2ccn3ncnc(Nc4cccc(Cl)c4)c23)CC1  Epidermal growth factor receptor (Homo sapiens)         nM                 =       4
1  NC1CCN(Cc2ccn3ncnc(Nc4ccc5c(cnn5Cc5cccc(F)c5)c4)c23)CC1  Epidermal growth factor receptor (Homo sapiens)         nM                 =      22
2  COc1ccc(Nc2ncnn3ccc(CN4CCC(N)CC4)c23)cc1Cl  Epidermal growth factor receptor (Homo sapiens)         nM                 =      70
3  Cn1ncc2cc(Nc3ncnn4ccc(COC[C@@H]5CNCCO5)c34)ccc21  Epidermal growth factor receptor (Homo sapiens)         nM                 >    1000

---

- testDescription: Drug level in BALB/c mouse at 240 mg/kg, po after 24 hrs
- Type: ADME, organism-based
- Parameters: dose 240 mg/kg, route oral
- testParameters: in vivo, read-out: Drug uptake
parameterMeasured: concentration at 24 h (nM)

>>> print(df.to_string())
                                  smilesstr  unitstext  number
0  Fc1cccc(Cn2ncc3cc(Nc4ncnn5ccc(COC[C@@H]6CNCCO6)c45)ccc32)c1         nM     100

---

- testDescription: Drug level in BALB/c mouse at 15 mg/kg, po after 24 hrs
- Format: ADME, organism-based
- Set-up: dose 15 mg/kg, route oral
- testParameters: in vivo, read-out: Drug uptake
parameterMeasured: concentration at 24 h (µM)

>>> df
                                  smilesstr      parametermeasured  number
0  NC1CCN(Cc2ccn3ncnc(Nc4ccc(F)c(Cl)c4)c23)CC1  concentration at 24 h     6.8

---

- testDescription: Drug level in BALB/c mouse at 50 mg/kg, po after 4 hrs
- Assay type: ADME, organism-based
- Parameters: dose 50 mg/kg, route oral
- testParameters: in vivo, read-out: Drug uptake
parameterMeasured: concentration at 4 h (nM)

>>> df
                                  smilesstr     parametermeasured  number
0  NC1CCN(Cc2ccn3ncnc(Nc4ccc5c(cnn5Cc5cccc(F)c5)c4)c23)CC1  concentration at 4 h    2700

---

# key: entry, value: minimal effective dose
- testDescription: Antitumor activity against human GEO cells xenografted in po dosed athymic mouse assessed as minimum effective dose
- Type: functional
- testParameters: read-out: MED
parameterMeasured: minimal effective dose (mg/kg)

In [3]: df
Out[3]:
                                  smilesstr  number
0   Cc1cccc(Nc2ncnn3ccc(CN4CCC(N)CC4)c23)c1      60
1  NC1CCN(Cc2ccn3ncnc(Nc4cccc(Cl)c4)c23)CC1      60
2  NC1CCN(Cc2ccn3ncnc(Nc4ccc(F)c(Cl)c4)c23)CC1      15
3  Cc1c(NC(=O)OC[C@@H]2COCCN2)cn2ncnc(Nc3ccc4c(cnn4Cc4cccc(F)c4)c3)c12     120
4  C#Cc1cccc(Nc2ncnn3ccc(CN4CCC(N)CC4)c23)c1      15

---

- testDescription: Fraction unbound in BALB/c mouse serum at 10 uM by equilibrium dialysis
- Assay type: ADME, cell-free
parameterMeasured: fraction unbound at 10 µM

In [3]: df
Out[3]:
                                  smilesstr  number
0  Fc1cccc(Cn2ncc3cc(Nc4ncnn5ccc(COC[C@@H]6CNCCO6)c45)ccc32)c1   0.026
1  NC1CCN(Cc2ccn3ncnc(Nc4ccc(F)c(Cl)c4)c23)CC1   0.012

---

- System: NCI-N87
- testDescription: Antiproliferative activity against human NCI-N87 cells
- Format: functional, cell-based
- testParameters: Homo sapiens, NCI-N87; read-out: IC50
pIC50: −log10 of the molar value.
Decide using pIC50: a value greater than or equal to 6 is 1.0, a smaller one is 0.0.

In [3]: df
Out[3]:
                                  smilesstr  labelvalue
0  NC1CCN(Cc2ccn3ncnc(Nc4cccc(Br)c4)c23)CC1         1.0
1  NC1CCN(Cc2ccn3ncnc(Nc4cc(Cl)cc(Cl)c4)c23)CC1         0.0
2  C#Cc1cccc(Nc2ncnn3ccc(COC[C@@H]4CNCCO4)c23)c1         0.0
3   NC1CCN(Cc2ccn3ncnc(Nc4cccc(F)c4)c23)CC1         1.0
4  C#Cc1cccc(Nc2ncnn3ccc(CN4CCC(N)CC4)c23)c1         1.0
5  NC1CCN(Cc2ccn3ncnc(Nc4ccc(F)c(Cl)c4)c23)CC1         1.0
6      NC1CCN(Cc2ccn3ncnc(Nc4ccccc4)c23)CC1         1.0
7     Cc1ccccc1Nc1ncnn2ccc(CN3CCC(N)CC3)c12         0.0
8  NC1CCN(Cc2ccn3ncnc(Nc4cccc(Cl)c4)c23)CC1         1.0
9   Cc1cccc(Nc2ncnn3ccc(CN4CCC(N)CC4)c23)c1         1.0

---

- testDescription: Cmax in BALB/c mouse at 50 mg/kg, po
- Assay type: ADME, organism-based
- Design: dose 50 mg/kg, route oral
- testParameters: in vivo
parameterMeasured: Cmax (µM)

>>> df
                                  smilesstr  unitstext  number
0  NC1CCN(Cc2ccn3ncnc(Nc4ccc5c(cnn5Cc5cccc(F)c5)c4)c23)CC1         µM     4.5
1  Fc1cccc(Cn2ncc3cc(Nc4ncnn5ccc(COC[C@@H]6CNCCO6)c45)ccc32)c1         µM     9.5

---

Recorded below: IC50, system Receptor tyrosine-protein kinase erbB-2 (Homo sapiens) (UniProt P04626).
parameterMeasured: IC50 (µM)

                                  smilesstr  resultcomparator  number
0  Cn1ncc2cc(Nc3ncnn4ccc(CN5CCC(N)CC5)c34)ccc21                 =    0.95
1  NC1CCN(Cc2ccn3ncnc(Nc4ccc(F)c(Cl)c4)c23)CC1                 =    0.01
2  NC1CCN(Cc2ccn3ncnc(Nc4cccc(Cl)c4)c23)CC1                 =   0.009
3  NC1CCN(Cc2ccn3ncnc(Nc4cccc(Br)c4)c23)CC1                 =   0.006
4  Cn1ncc2cc(Nc3ncnn4ccc(COC[C@@H]5CNCCO5)c34)ccc21                 >       1
